System tested: pre-pro-insulin glargine
Readout label: Purity Insulin Glargine (area %)

trypsin variant SEQ ID NO: 10 (protein) IVGGYTCAANSIPYQVSLNSGSHRCGGSLINSQWVVSAAHCYKSRIQVRLGEHNIDVLEGNEQFINAAKIITHPNFNGNTLDNDIMLIKLSSPATLNSTVATVSLPRSCAAAGTECLISGWGNTKSSGSSYPSLLQCLKAPVLSDSSCKSSYPGQITGNMICVGFLEGGKDACQGDSGGPVVCNGQLQGIVSSGYGCAQKNKPGVYTKVCNYVNWIQQTIAAN = 82.7
trypsin variant SEQ ID NO: 14 (protein) IVGGYTCAANSIPYQVSLNSGSHRCGGSLINSQWVVSAAHCYKSRIQVRLGEHNIDVLEGNEQFINAAKIITHPNFNGNTLDNDIMLIKLSSPATLNSHVATVSLPRSCAAAGTECLISGWGNTKSSGSSYPSLLQCLKAPVLSDSSCKSSYPGQITGNMICVGFLEGGKDACQGDSGGPVVCNGQLQGIVSSGYGCAQKNKPGVYTKVCNYVNWIQQTIAAN = 84.5
trypsin variant SEQ ID NO: 41 (protein) IVGGYTCAANSIPYQVSLNSGSHRCGGSLINSQWVVSAAHCYKSRIQVRLGEHNIDVLEGNEQFINAAKIITHPNFNGNTLDNDIMLIKLSSPATLNSRVATVSLPRSCAAAGTECLISGWGNTKSSGSSHPSLLQCLKAPVLSDSSCKSSYPGQITGNMICVGFLEGGKDACQGDSGGPVVCNGQLQGIVSSGYGCAQKNKPGVYTKVCNYVNWIQQTIAAN = 82.8
trypsin variant SEQ ID NO: 91 (protein) IVGGYTCAANSIPYQVSLNSGSHRCGGSLINSQWVVSAAHCYKPRIQVRLGEHNIHVLEGNEQFINAAKIITHPNFNPNTLDNDIMLIKLSSPATLNSAVATVSLPTSCAAAGTECLISGWGNTSSSGSSMPSLLQCLKAPVLSDSSCKSSYPGQITGNMICVGFLEGGKDACQGDSGGPVVCNGQLQGIVSSGYGCAQKNKPGVYTKVCNYVNWIQQTIAAN = 86.8
trypsin variant SEQ ID NO: 97 (protein) IVGGYTCAANSIPYQVSLNSGSHRCGGSLINSQWVVSAAHCYKPRIQVRLGEHNIHVLEGNEQFINAAKIITHPNFNPNTLDNDIMLIKLSSPATLNSAVATVSLPTSCAAAGTECLISGWGNTASSGSSMPSLLQCLKAPVLSDSSCKSSYPGQITGNMICVGFLEGGADACQGDSGGPVVCNGQLQGIVSSGYGCAQKNKPGVYTKVCNYVNWIQQTIAAN = 89.4
trypsin variant SEQ ID NO: 98 (protein) IVGGYTCAANSIPYQVSLNSGSHRCGGSLINSQWVVSAAHCYKPRIQVRLGEHNIHVLEGNEQFINAAKIITHPNFNPNTLDNDIMLIKLSSPATLNSAVATVSLPTSCAAAGTECLISGWGNTASSGSSMPSLLQCLKAPVLSDSSCKSSYPGQITGNMICVGFLEGGADSCQGDSGGPVVCNGQLQGIVSSGYGCAQKNKPGVYTKVCNYVNWIQQTIAAN = 89.4
trypsin variant SEQ ID NO: 24 (protein) IVGGYTCAANSIPYQVSLNSGSHRCGGSLINSQWVVSAAHCYKSRIQVRLGEHNIDVLEGNEQFINAAKIITHPNFNGNTLDNDIMLIKLSSPATLNSRVATVSLPRSCAAAGTECLISGWGNTKSSGSSYPSLLQCLKAPVLSDSSCKSSYPGQITGNMICVGFLEGGYDACQGDSGGPVVCNGQLQGIVSSGYGCAQKNKPGVYTKVCNYVNWIQQTIAAN = 82.3
trypsin variant SEQ ID NO: 79 (protein) IVGGYTCAANSIPYQVSLNSGSHRCGGSLINSQWVVSAAHCYKPRIQVRLGEHNIHVLEGNEQFINAAKIITHPNFNPNTLDNDIMLIKLSSPATLNSHVATVSLPRSCAAAGTECLISGWGNTASSGSSMPSLLQCLKAPVLSDSSCKSSYPGQITGNMICVGFLEGGKDACQGDSGGPVVCNGQLQGIVSSGYGCAQKNKPGVYTKVCNYVNWIQQTIAAN = 87.8
trypsin variant SEQ ID NO: 89 (protein) IVGGYTCAANSIPYQVSLNSGSHRCGGSLINSQWVVSAAHCYKPRIQVRLGEHNIHVLEGNEQFINAAKIITHPNFNPNTLDNDIMLIKLSSPATLNSHVATVSLPTSCAAAGTECLISGWGNTASSGSSMPSLLQCLKAPVLSDSSCKSSYPGQITGNMICVGFLEGGKDACQGDSGGPVVCNGQLQGIVSSGYGCAQKNKPGVYTKVCNYVNWIQQTIAAN = 88.1
trypsin variant SEQ ID NO: 119 (protein) IVGGYTCAANSIPYQVSLNSGSHRCGGSLINSQWVVSAAHCYKPRIQVRLGEHNIHVLEGNEQFINAAKIITHPNFNGNTLDNDIMLIKLSSPATLNSAVATVSLPTSCAAAGTECLISGWGNTASSGSSMPSLLQCLKAPVLSDSSCKSSYPGQITGNMICVGFLEGGKDACQGDSGGPVVCNGQLQGIVSSGYGCAQKNKPGVYTKVCNYVNWIQQTIAAN = 85.2
